Listed here: items and their measured Relative Phosphorylation to Autophosphorylation Control (set at 100), ERK1.
target: extracellularly-regulated kinase-1 (ERK1) (Homo sapiens); construct: GST; purchased SignalChem M29-10G; assay: In vitro phosphorylation of nucleocapsid peptides, ADP-Glo, ERK1; format: biochemical; details: peptide ~250 μM, 250 μM ATP, 30 min at 30° C.; duplicate measurements
Sequence (P27361 whole entry): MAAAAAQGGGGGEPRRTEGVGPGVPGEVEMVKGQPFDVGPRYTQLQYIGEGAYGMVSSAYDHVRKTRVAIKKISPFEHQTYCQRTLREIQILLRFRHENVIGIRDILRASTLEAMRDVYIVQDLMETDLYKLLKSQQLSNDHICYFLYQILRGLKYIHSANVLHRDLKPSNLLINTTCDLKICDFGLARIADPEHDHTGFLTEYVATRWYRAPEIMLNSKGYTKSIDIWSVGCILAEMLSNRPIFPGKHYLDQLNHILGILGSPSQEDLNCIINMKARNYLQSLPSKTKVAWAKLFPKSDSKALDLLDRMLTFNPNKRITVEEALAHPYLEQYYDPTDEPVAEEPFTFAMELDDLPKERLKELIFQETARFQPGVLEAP
Where no end group is shown, it is not given here. [ ]: non-standard residue; d: D form. pT = C[C@@H](OP(=O)(O)O)[C@H](N)C(=O)O; pS = N[C@@H](COP(=O)(O)O)C(=O)O

See these solved cases before continuing.
SSRSRNSSRNSTPG [SCV2-N [187-200], synthetic peptide modeled after SARS-CoV-2 nucleocapsid protein phosphorylation sites]; 100
RNSTPGSSRGT(pS)PAR (RNSTPGSSRGT[pS]PAR) [SCV2-N [195-209]-pS206, synthetic peptide modeled after SARS-CoV-2 nucleocapsid protein phosphorylation sites, pre-phosphorylated at S206]; 100
RNSTPGSSRGTSPAR [SCV2-N [195-209], synthetic peptide modeled after SARS-CoV-2 nucleocapsid protein phosphorylation sites]; 102

Query substance follows.
Per the record, SSRSRNSSRNS(pT)PG (SSRSRNSSRNS[pT]PG) [SCV2-N [187-200]-pT198, synthetic peptide modeled after SARS-CoV-2 nucleocapsid protein phosphorylation sites, pre-phosphorylated at T198] has Relative Phosphorylation to Autophosphorylation Control (set at 100), ERK1 of 100

FYI, the data here is from patent US20250042887A1.
